- Experiment: total protein half-life in vivo (active degradation + dilution); higher = more stable protein
- Measurement setup: E. coli NCM3722 delta-smpB; growth: N-lim chemostat; doubling time 6 h
Property name: total protein half-life in vivo
Respond with the figure and its unit, in that order.

INSERT INTO assay_data (sequence_string, property_name, reading) VALUES
  ('MRRFFWLVAAALLLAGCAGEKGIVEKEGYQLDTRRQAQAAYPRIKVLVIHYTADDFDSSLATLTDKQVSSHYLVPAVPPRYNGKPRIWQLVPEQELAWHAGISAWRGATRLNDTSIGIELENRGWQKSAGVKYFAPFEPAQIQALIPLAKDIIARYHIKPENVVAHADIAPQRKDDPGPLFPWQQLAQQGIGAWPDAQRVNFYLAGRAPHTPVDTASLLELLARYGYDVKPDMTPREQRRVIMAFQMHFRPTLYNGEADAETQAIAEALLEKYGQD', 'total protein half-life in vivo', '5.75 h'),
  ('MFQQQKDWETRENAFAAFTMGPLTDFWRQRDEAEFTGVDDIPVRFVRFRAQHHDRVVVICPGRIESYVKYAELAYDLFHLGFDVLIIDHRGQGRSGRLLADPHLGHVNRFNDYVDDLAAFWQQEVQPGPWRKRYILAHSMGGAISTLFLQRHPGVCDAIALTAPMFGIVIRMPSFMARQILNWAEAHPRFRDGYAIGTGRWRALPFAINVLTHSRQRYRRNLRFYADDPTIRVGGPTYHWVRESILAGEQVLAGAGDDATPTLLLQAEEERVVDNRMHDRFCELRTAAGHPVEGGRPLVIKGAYHEILFEKDAMRSVALHAIVDFFNRHNSPSGNRSTEV', 'total protein half-life in vivo', '4.57 h'),
  ('MDKIHAMQLFIKVAELESFSRAADFFALPKGSVSRQIQALEHQLGTQLLQRTTRRVKLTPEGMTYYQRAKDVLSNLSELDGLFQQDATSISGKLRIDIPPGIAKSLLLPRLSEFLYLHPGIELELSSHDRPVDILHDGFDCVIRTGALPEDGVIARPLGKLTMVNCASPHYLTRFGYPQSPDDLTSHAIVRYTPHLGVHPLGFEVASVNGVQWFKSGGMLTVNSSENYLTAGLAGLGIIQIPRIAVREALRAGRLIEVLPGYRAEPLSLSLVYPQRRELSRRVNLFMQWLAGVMKEYLD', 'total protein half-life in vivo', '2.76 h'),
  ('MWYQKTLTLSAKSRGFHLVTDEILNQLADMPRVNIGLLHLLLQHTSASLTLNENCDPTVRHDMERFFLRTVPDNGNYEHDYEGADDMPSHIKSSMLGTSLVLPVHKGRIQTGTWQGIWLGEHRIHGGSRRIIATLQGE [P0AF48]', 'total protein half-life in vivo', '4.33 h');

Ask: Complete the entry with total protein half-life in vivo for MQDSILTTVVKDIDGEVTTLEKFAGNVLLIVNVASKCGLTPQYEQLENIQKAWVDRGFMVLGFPCNQFLEQEPGSDEEIKTYCTTTWGVTFPMFSKIEVNGEGRHPLYQKLIAAAPTAVAPEESGFYARMVSKGRAPLYPDDILWNFEKFLVGRDGKVIQRFSPDMTPEDPIVMESIKLALAK
Reply: 4.24 h

Ask: Complete the entry with total protein half-life in vivo for MKKWSRHLLAAGALALGMSAAHADDNNTLYFYNWTEYVPPGLLEQFTKETGIKVIYSTYESNETMYAKLKTYKDGAYDLVVPSTYYVDKMRKEGMIQKIDKSKLTNFSNLDPDMLNKPFDPNNDYSIPYIWGATAIGVNGDAVDPKSVTSWADLWKPEYKGSLLLTDDAREVFQMALRKLGYSGNTTDPKEIEAAYNELKKLMPNVAAFNSDNPANPYMEGEVNLGMIWNGSAFVARQAGTPIDVVWPKEGGIFWMDSLAIPANAKNKEGALKLINFLLRPDVAKQVAETIGYPTPNLAARKLLSPEVANDKTLYPDAETIKNGEWQNDVGAASSIYEEYYQKLKAGR [P0AFK9]
Reply: 5.94 h

Ask: Complete the entry with total protein half-life in vivo for MTIKNKMLLGALLLVTSAAWAAPATAGSTNTSGISKYELSSFIADFKHFKPGDTVPEMYRTDEYNIKQWQLRNLPAPDAGTHWTYMGGAYVLISDTDGKIIKAYDGEIFYHR
Reply: 6.59 h

Ask: Complete the entry with total protein half-life in vivo for MFQLSVQDIHPGEKAGDKEEAIRQVAAALVQAGNVAEGYVNGMLAREQQTSTFLGNGIAIPHGTTDTRDQVLKTGVQVFQFPEGVTWGDGQVAYVAIGIAASSDEHLGLLRQLTHVLSDDSVAEQLKSATTAEELRALLMGEKQSEQLKLDNEMLTLDIVASDLLTLQALNAARLKEAGAVDATFVTKAINEQPLNLGQGIWLSDSAEGNLRSAIAVSRAANAFDVDGETAAMLVSVAMNDDQPIAVLKRLADLLLDNKADRLLKADAATLLALLTSDDAPTDDVLSAEFVVRNEHGLHARPGTMLVNTIKQFNSDITVTNLDGTGKPANGRSLMKVVALGVKKGHRLRFTAQGADAEQALKAIGDAIAAGLGEGA
Reply: 5.94 h

Ask: Complete the entry with total protein half-life in vivo for MRFIIRTVMLIALVWIGLLLSGYGVLIGSKENAAGLGLQCTYLTARGTSTVQYLHTKSGFLGITDCPLLRKSNIVVDNG [Q2MB16]
Reply: 6.03 h

Ask: Complete the entry with total protein half-life in vivo for MSAKHPVIAVTGSSGAGTTTTSLAFRKIFAQLNLHAAEVEGDSFHRYTRPEMDMAIRKARDAGRHISYFGPEANDFGLLEQTFIEYGQSGKGKSRKYLHTYDEAVPWNQVPGTFTPWQPLPEPTDVLFYEGLHGGVVTPQHNVAQHVDLLVGVVPIVNLEWIQKLIRDTSERGHSREAVMDSVVRSMEDYINYITPQFSRTHLNFQRVPTVDTSNPFAAKGIPSLDESFVVIHFRNLEGIDFPWLLAMLQGSFISHINTLVVPGGKMGLAMELIMLPLVQRLMEGKKIE [P0AEX5]
Reply: 5.18 h

Ask: Complete the entry with total protein half-life in vivo for MTMNITSKQMEITPAIRQHVADRLAKLEKWQTHLINPHIILSKEPQGFVADATINTPNGVLVASGKHEDMYTAINELINKLERQLNKLQHKGEARRAATSVKDANFVEEVEEE [P0AD49]
Reply: 0.687 h

Ask: Complete the entry with total protein half-life in vivo for MAGINLNKKLWRIPQQGMVRGVCAGIANYFDVPVKLVRILVVLSIFFGLALFTLVAYIILSFALDPMPDNMAFGEQLPSSSELLDEVDRELAASETRLREMERYVTSDTFTLRSRFRQL [P0AFN2]
Reply: 4.53 h
